// reported kinase still bound, per cent of control per item
- EXPERIMENTAL SYSTEM: STK17B (human)
- ASSAY PROCEDURE: KINOMEscan competition binding
- CONDITION SET: compound 10.0 µM
OBSERVATION TYPE: kinase still bound, per cent of control (%)

STRUCTURE SMILES STRING: CCC(=O)N1CCN(c2ccc(-n3c(=O)ccc4cnc5ccc(-c6cnc7ccccc7c6)cc5c43)cc2C(F)(F)F)CC1
MEASURED NUMBER: 67

STRUCTURE SMILES STRING: CC(C)n1nc(-c2cc3cc(O)ccc3[nH]2)c2c(N)ncnc21
MEASURED NUMBER: 40

STRUCTURE SMILES STRING: COc1ccc(-c2ccc3c(N4CCOCC4)nc(N4C[C@@H](C)O[C@@H](C)C4)nc3n2)cc1CO
MEASURED NUMBER: 100

STRUCTURE SMILES STRING: COC(=O)Nc1ccc(-c2nc(N3CCOCC3)c3cnn(C4CCN(C(=O)OC)CC4)c3n2)cc1
MEASURED NUMBER: 75

* * *

// reported per cent of control per item
- EXPERIMENTAL SYSTEM: CSNK1D (human) (UniProt P48730)
- Sequence (P48730 whole entry, looked up): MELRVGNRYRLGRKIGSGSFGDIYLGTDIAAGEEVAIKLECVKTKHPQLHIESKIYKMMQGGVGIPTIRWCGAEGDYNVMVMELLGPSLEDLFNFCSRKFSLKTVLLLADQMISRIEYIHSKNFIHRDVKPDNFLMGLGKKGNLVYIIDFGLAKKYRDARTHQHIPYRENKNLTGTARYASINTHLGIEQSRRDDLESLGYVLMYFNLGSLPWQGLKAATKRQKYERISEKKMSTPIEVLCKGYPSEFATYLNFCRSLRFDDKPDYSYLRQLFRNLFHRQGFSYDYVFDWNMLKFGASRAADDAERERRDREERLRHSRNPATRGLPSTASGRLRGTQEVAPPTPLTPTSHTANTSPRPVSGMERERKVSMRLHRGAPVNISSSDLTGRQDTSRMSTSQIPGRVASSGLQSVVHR
- ASSAY PROCEDURE: KINOMEscan competition binding
- CONDITION SET: compound 10.0 µM

STRUCTURE SMILES STRING: COC(=O)Nc1ccc(-c2nc(N3CCOCC3)c3cnn(C4CCN(C(=O)OC)CC4)c3n2)cc1
UNIT TEXT: %
per cent of control: 100

STRUCTURE SMILES STRING: CC(C)n1nc(-c2cc3cc(O)ccc3[nH]2)c2c(N)ncnc21
UNIT TEXT: %
per cent of control: 2.4

STRUCTURE SMILES STRING: CCC(=O)N1CCN(c2ccc(-n3c(=O)ccc4cnc5ccc(-c6cnc7ccccc7c6)cc5c43)cc2C(F)(F)F)CC1
UNIT TEXT: %
per cent of control: 4.3

STRUCTURE SMILES STRING: COc1ccc(-c2ccc3c(N4CCOCC4)nc(N4C[C@@H](C)O[C@@H](C)C4)nc3n2)cc1CO
UNIT TEXT: %
per cent of control: 79

* * *

- EXPERIMENTAL SYSTEM: TNIK (human) (UniProt Q9UKE5)
- Sequence (Q9UKE5 whole entry, looked up): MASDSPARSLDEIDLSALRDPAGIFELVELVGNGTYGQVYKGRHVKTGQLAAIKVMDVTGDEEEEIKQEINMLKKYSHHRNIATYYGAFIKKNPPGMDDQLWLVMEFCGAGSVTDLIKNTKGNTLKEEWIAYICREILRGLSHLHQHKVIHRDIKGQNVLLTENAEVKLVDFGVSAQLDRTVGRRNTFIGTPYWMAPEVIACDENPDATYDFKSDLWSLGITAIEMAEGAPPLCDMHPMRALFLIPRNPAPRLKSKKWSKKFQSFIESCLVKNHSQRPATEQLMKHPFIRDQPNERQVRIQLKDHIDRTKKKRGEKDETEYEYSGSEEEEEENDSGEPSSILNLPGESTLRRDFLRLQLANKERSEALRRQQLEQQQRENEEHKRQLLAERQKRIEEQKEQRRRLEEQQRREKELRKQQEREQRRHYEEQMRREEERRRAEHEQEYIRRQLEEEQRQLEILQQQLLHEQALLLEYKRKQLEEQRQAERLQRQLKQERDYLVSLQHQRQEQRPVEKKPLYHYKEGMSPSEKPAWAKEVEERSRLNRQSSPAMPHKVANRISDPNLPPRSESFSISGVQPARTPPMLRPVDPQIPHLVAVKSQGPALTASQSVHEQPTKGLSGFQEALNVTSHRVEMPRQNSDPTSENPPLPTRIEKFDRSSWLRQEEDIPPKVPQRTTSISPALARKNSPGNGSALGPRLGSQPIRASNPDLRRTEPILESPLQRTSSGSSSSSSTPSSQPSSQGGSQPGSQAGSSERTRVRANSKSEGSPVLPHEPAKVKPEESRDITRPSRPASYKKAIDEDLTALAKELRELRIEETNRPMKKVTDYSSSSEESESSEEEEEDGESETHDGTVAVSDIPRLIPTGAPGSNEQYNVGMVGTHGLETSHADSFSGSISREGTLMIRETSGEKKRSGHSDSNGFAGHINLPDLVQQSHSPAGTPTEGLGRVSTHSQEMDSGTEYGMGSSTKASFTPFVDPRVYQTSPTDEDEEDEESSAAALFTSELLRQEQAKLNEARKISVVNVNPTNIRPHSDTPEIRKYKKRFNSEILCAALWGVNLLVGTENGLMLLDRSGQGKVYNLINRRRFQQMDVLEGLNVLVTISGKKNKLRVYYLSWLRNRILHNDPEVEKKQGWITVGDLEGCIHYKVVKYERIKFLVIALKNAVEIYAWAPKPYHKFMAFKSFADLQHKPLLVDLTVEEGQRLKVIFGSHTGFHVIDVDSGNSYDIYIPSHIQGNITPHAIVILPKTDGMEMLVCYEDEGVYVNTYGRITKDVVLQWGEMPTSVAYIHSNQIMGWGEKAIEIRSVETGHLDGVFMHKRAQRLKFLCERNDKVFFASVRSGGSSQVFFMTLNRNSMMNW
- ASSAY PROCEDURE: KINOMEscan competition binding
- CONDITION SET: compound 10.0 µM
// reported kinase still bound, per cent of control per item

STRUCTURE SMILES STRING: CCC(=O)N1CCN(c2ccc(-n3c(=O)ccc4cnc5ccc(-c6cnc7ccccc7c6)cc5c43)cc2C(F)(F)F)CC1
EXPERIMENTAL SYSTEM: TNIK (human) (UniProt Q9UKE5)
kinase still bound, per cent of control (%): 39

STRUCTURE SMILES STRING: CC(C)n1nc(-c2cc3cc(O)ccc3[nH]2)c2c(N)ncnc21
EXPERIMENTAL SYSTEM: TNIK (human) (UniProt Q9UKE5)
kinase still bound, per cent of control (%): 2.4

STRUCTURE SMILES STRING: COc1ccc(-c2ccc3c(N4CCOCC4)nc(N4C[C@@H](C)O[C@@H](C)C4)nc3n2)cc1CO
EXPERIMENTAL SYSTEM: TNIK (human) (UniProt Q9UKE5)
kinase still bound, per cent of control (%): 100

STRUCTURE SMILES STRING: COC(=O)Nc1ccc(-c2nc(N3CCOCC3)c3cnn(C4CCN(C(=O)OC)CC4)c3n2)cc1
EXPERIMENTAL SYSTEM: TNIK (human) (UniProt Q9UKE5)
kinase still bound, per cent of control (%): 95

* * *

- EXPERIMENTAL SYSTEM: MAP2K5 (human) (UniProt Q13163)
- Sequence (Q13163 whole entry, looked up): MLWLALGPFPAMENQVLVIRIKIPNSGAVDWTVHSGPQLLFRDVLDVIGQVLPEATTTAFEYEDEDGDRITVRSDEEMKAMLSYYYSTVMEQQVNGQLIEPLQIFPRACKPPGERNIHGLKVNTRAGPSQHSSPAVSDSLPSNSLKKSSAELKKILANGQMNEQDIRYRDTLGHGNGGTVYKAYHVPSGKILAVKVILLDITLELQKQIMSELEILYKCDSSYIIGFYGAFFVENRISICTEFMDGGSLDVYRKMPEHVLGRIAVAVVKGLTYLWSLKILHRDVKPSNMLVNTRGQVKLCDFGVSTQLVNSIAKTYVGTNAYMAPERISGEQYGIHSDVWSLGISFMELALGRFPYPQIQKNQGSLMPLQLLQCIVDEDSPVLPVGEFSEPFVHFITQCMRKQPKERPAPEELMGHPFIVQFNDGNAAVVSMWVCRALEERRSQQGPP
- ASSAY PROCEDURE: KINOMEscan competition binding
- CONDITION SET: compound 10.0 µM
// reported kinase still bound, per cent of control per item

STRUCTURE SMILES STRING: CC(C)n1nc(-c2cc3cc(O)ccc3[nH]2)c2c(N)ncnc21
EXPERIMENTAL SYSTEM: MAP2K5 (human) (UniProt Q13163)
kinase still bound, per cent of control [%]: 0.35
//
STRUCTURE SMILES STRING: CCC(=O)N1CCN(c2ccc(-n3c(=O)ccc4cnc5ccc(-c6cnc7ccccc7c6)cc5c43)cc2C(F)(F)F)CC1
EXPERIMENTAL SYSTEM: MAP2K5 (human) (UniProt Q13163)
kinase still bound, per cent of control [%]: 100
//
STRUCTURE SMILES STRING: COC(=O)Nc1ccc(-c2nc(N3CCOCC3)c3cnn(C4CCN(C(=O)OC)CC4)c3n2)cc1
EXPERIMENTAL SYSTEM: MAP2K5 (human) (UniProt Q13163)
kinase still bound, per cent of control [%]: 100
//
STRUCTURE SMILES STRING: COc1ccc(-c2ccc3c(N4CCOCC4)nc(N4C[C@@H](C)O[C@@H](C)C4)nc3n2)cc1CO
EXPERIMENTAL SYSTEM: MAP2K5 (human) (UniProt Q13163)
kinase still bound, per cent of control [%]: 100

* * *

// reported kinase still bound, per cent of control per item
- EXPERIMENTAL SYSTEM: FGFR3 (human)
- ASSAY PROCEDURE: KINOMEscan competition binding
- CONDITION SET: compound 10.0 µM
OBSERVATION TYPE: kinase still bound, per cent of control

STRUCTURE SMILES STRING: CCC(=O)N1CCN(c2ccc(-n3c(=O)ccc4cnc5ccc(-c6cnc7ccccc7c6)cc5c43)cc2C(F)(F)F)CC1
RESULT: 42%

STRUCTURE SMILES STRING: CC(C)n1nc(-c2cc3cc(O)ccc3[nH]2)c2c(N)ncnc21
RESULT: 9.2%

STRUCTURE SMILES STRING: COC(=O)Nc1ccc(-c2nc(N3CCOCC3)c3cnn(C4CCN(C(=O)OC)CC4)c3n2)cc1
RESULT: 99%

STRUCTURE SMILES STRING: COc1ccc(-c2ccc3c(N4CCOCC4)nc(N4C[C@@H](C)O[C@@H](C)C4)nc3n2)cc1CO
RESULT: 100%

* * *

// reported kinase still bound, per cent of control per item
- EXPERIMENTAL SYSTEM: PKN1 (human)
- ASSAY PROCEDURE: KINOMEscan competition binding
- CONDITION SET: compound 10.0 µM
OBSERVATION TYPE: kinase still bound, per cent of control (%)

STRUCTURE SMILES STRING: CCC(=O)N1CCN(c2ccc(-n3c(=O)ccc4cnc5ccc(-c6cnc7ccccc7c6)cc5c43)cc2C(F)(F)F)CC1
OBSERVATION TYPE: kinase still bound, per cent of control
MEASURED NUMBER: 92

STRUCTURE SMILES STRING: COC(=O)Nc1ccc(-c2nc(N3CCOCC3)c3cnn(C4CCN(C(=O)OC)CC4)c3n2)cc1
OBSERVATION TYPE: kinase still bound, per cent of control
MEASURED NUMBER: 97

STRUCTURE SMILES STRING: COc1ccc(-c2ccc3c(N4CCOCC4)nc(N4C[C@@H](C)O[C@@H](C)C4)nc3n2)cc1CO
OBSERVATION TYPE: kinase still bound, per cent of control
MEASURED NUMBER: 94

STRUCTURE SMILES STRING: CC(C)n1nc(-c2cc3cc(O)ccc3[nH]2)c2c(N)ncnc21
OBSERVATION TYPE: kinase still bound, per cent of control
MEASURED NUMBER: 85

* * *

- EXPERIMENTAL SYSTEM: MAP4K1 (human) (UniProt Q92918)
- Sequence (Q92918 whole entry, looked up): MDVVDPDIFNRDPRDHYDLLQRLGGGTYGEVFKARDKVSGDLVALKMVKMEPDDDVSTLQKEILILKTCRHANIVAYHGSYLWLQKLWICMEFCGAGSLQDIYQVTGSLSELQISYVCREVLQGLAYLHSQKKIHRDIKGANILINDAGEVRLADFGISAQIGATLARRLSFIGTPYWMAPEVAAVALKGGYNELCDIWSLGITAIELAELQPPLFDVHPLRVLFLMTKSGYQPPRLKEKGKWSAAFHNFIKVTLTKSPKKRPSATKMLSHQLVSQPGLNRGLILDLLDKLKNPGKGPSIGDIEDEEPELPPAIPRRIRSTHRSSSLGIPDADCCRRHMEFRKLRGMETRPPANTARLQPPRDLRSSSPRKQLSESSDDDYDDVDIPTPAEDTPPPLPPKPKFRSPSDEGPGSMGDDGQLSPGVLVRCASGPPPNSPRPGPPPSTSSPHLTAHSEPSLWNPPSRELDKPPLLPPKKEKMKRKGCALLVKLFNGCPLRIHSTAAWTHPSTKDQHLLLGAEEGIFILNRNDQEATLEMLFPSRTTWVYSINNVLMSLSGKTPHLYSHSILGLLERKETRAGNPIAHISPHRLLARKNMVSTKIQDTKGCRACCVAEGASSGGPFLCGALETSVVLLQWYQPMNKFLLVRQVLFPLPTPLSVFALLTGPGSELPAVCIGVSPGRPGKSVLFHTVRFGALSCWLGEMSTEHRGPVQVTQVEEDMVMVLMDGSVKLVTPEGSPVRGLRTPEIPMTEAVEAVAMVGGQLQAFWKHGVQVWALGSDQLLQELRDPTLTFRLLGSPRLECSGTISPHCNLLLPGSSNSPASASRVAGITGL
- ASSAY PROCEDURE: KINOMEscan competition binding
- CONDITION SET: compound 10.0 µM
OBSERVATION TYPE: kinase still bound, per cent of control (%)

STRUCTURE SMILES STRING: COC(=O)Nc1ccc(-c2nc(N3CCOCC3)c3cnn(C4CCN(C(=O)OC)CC4)c3n2)cc1
OBSERVATION TYPE: kinase still bound, per cent of control
MEASURED NUMBER: 100
--
STRUCTURE SMILES STRING: CC(C)n1nc(-c2cc3cc(O)ccc3[nH]2)c2c(N)ncnc21
OBSERVATION TYPE: kinase still bound, per cent of control
MEASURED NUMBER: 33
--
STRUCTURE SMILES STRING: COc1ccc(-c2ccc3c(N4CCOCC4)nc(N4C[C@@H](C)O[C@@H](C)C4)nc3n2)cc1CO
OBSERVATION TYPE: kinase still bound, per cent of control
MEASURED NUMBER: 88
--
STRUCTURE SMILES STRING: CCC(=O)N1CCN(c2ccc(-n3c(=O)ccc4cnc5ccc(-c6cnc7ccccc7c6)cc5c43)cc2C(F)(F)F)CC1
OBSERVATION TYPE: kinase still bound, per cent of control
MEASURED NUMBER: 30
